experiment: Pharmacokinetics in Sprague Dawley rats (plasma and brain concentrations, PK parameters); format: in vivo; conditions: Sprague Dawley, rat, plasma, po, 10 mg/kg, Sprague Dawley rat, po 10 mg/kg, plasma, 8 h, Rat 4; read-out: Concentration Rat 4
endpoint_name: concentration at 8 h (ng/mL)
Answer in ng/mL, number only, no unit symbol.

Reported concentration at 8 h for O=C1CCC(N2C(=O)c3cccc(NCCOCCOCCNCc4ccc(-n5cc(NC(=O)c6coc(-c7ccnc(NCC8CC8)c7)n6)c(C(F)F)n5)cc4)c3C2=O)C(=O)N1 (stereo not shown) [I-210] was 1.66

----------
List of DC50 values.
target: IRAK4 (Homo sapiens); assay: OCI-LY-10 MSD assay for IRAK4 DC50; format: cell-based; parameters: endogenous in cells; host or cells: OCI-LY10; conditions: OCI-LY10 cells, 4 hr incubation, concentration required to degrade 50% of protein

Consider the following illustrative entries.
INSERT INTO measurements (compound, obs_value) VALUES
  ('CN(CCOCCOCCCc1ccc2c(c1)C(=O)N(C1CCC(=O)NC1=O)C2=O)C(=O)c1ccc(-n2cc(NC(=O)c3coc(-c4ccncc4)n3)c(C(N)=O)n2)cc1 (stereo not shown) [I-227]', '< 50 nM'),
  ('O=C1CCC(n2c(=O)oc3c(CCCOCCOCCNC(=O)c4ccc(-n5cc(NC(=O)c6coc(-c7ccnc(NCC8CC8)c7)n6)c(C(F)F)n5)cc4)cccc32)C(=O)N1 (stereo not shown) [I-265]', '< 50 nM'),
  ('NC(=O)c1nn(-c2ccc(CNCCOCCOCCCc3cccc4c3C(=O)N(C3CCC(=O)NC3=O)C4=O)cc2)cc1NC(=O)c1coc(-c2ccnc(NCC(F)(F)F)c2)n1 (stereo not shown) [I-321]', '< 50 nM'),
  ('O=C1CCC(N2C[C@H](c3cccc(C#CCN4CCO[C@@H](CNCc5ccc(-n6cc(NC(=O)c7coc(-c8ccnc(NCC9CC9)c8)n7)c(C(F)F)n6)cc5)C4)c3)OC2=O)C(=O)N1 (stereo partly shown) [I-584]', '< 50 nM'),
  ('O=C1CCC(n2c(=O)oc3c(CCCN4CCO[C@@H](CNCc5ccc(-n6cc(NC(=O)c7coc(-c8ccnc(NCC9CC9)c8)n7)c(C(F)F)n6)cc5)C4)cccc32)C(=O)N1 (stereo partly shown) [I-589]', '< 50 nM'),
  ('NC(=O)c1nn(-c2ccc(C(=O)NCCOCCOCCN3CCC(Nc4cccc5c4C(=O)N(C4CCC(=O)NC4=O)C5=O)CC3)cc2)cc1NC(=O)c1coc(-c2ccnc(NCC3CC3)c2)n1 (stereo not shown) [I-290]', '> 1000 nM'),
  ('Cn1c(=O)n(C2CCC(=O)NC2=O)c2cccc(CCCNCc3ccc(-n4cc(NC(=O)c5coc(-c6ccnc(NCC7CC7)c6)n5)c(C(F)F)n4)cc3)c21 (stereo not shown) [I-423]', '> 1000 nM'),
  ('CC(C)(C)[C@H](NC(=O)COCCOCCOCCNc1cccc2c1C(=O)N(C1CCC(=O)NC1=O)C2=O)C(=O)N1C[C@H](OC(=O)[C@@H]2CCCN2)C[C@H]1C(=O)NCc1ccc(-n2cc(NC(=O)c3coc(-c4ccnc(NCC5CC5)c4)n3)c(C(F)F)n2)cc1 (stereo partly shown) [I-286]', '> 1000 nM');

Looking up CN(C[C@H]1CN(CCCc2ccc3c(c2)n(C)c(=O)n3C2CCC(=O)NC2=O)CCO1)C(=O)c1ccc(-n2cc(NC(=O)c3coc(-c4ccnc(NCC(F)(F)F)c4)n3)c(C(F)F)n2)cc1 (stereo partly shown) [I-487] , I see its DC50 listed as < 50 nM

Record summary for Cn1c(=O)n(C2CCC(=O)NC2=O)c2ccc(CCCOCCOCCOCCOCC(=O)N3CCN(C4CCC(Nc5ncnc6[nH]cc(C7CCOCC7)c56)CC4)CC3)cc21 (stereo not shown) [I-447] : reported DC50 = 50 to 100 nM

----------
assay: Pharmacokinetics in Sprague Dawley rats (plasma and brain concentrations, PK parameters); type: in vivo; conditions: Sprague Dawley, rat, plasma, po, 10 mg/kg, Sprague Dawley rat, po 10 mg/kg, plasma, 8 h, Rat 6; read-out: Concentration Rat 6
endpoint_name: concentration at 8 h (ng/mL)
Give just the numeric value; ng/mL need not be written.

Briefly, concentration at 8 h measured for O=C1CCC(N2C(=O)c3cccc(NCCOCCOCCNCc4ccc(-n5cc(NC(=O)c6coc(-c7ccnc(NCC8CC8)c7)n6)c(C(F)F)n5)cc4)c3C2=O)C(=O)N1 (stereo not shown) : 0.71

----------
assay: Pharmacokinetics in Sprague Dawley rats (plasma and brain concentrations, PK parameters); format: in vivo; details: Sprague Dawley, rat, plasma, po, 10 mg/kg, Sprague Dawley rat, po 10 mg/kg, plasma, 4 h, Rat 4; read-out: Concentration Rat 4
endpoint_name: concentration at 4 h (ng/mL)
Lab book: enter the figure in ng/mL, no units written.

Notebook: O=C1CCC(N2C(=O)c3cccc(NCCOCCOCCNCc4ccc(-n5cc(NC(=O)c6coc(-c7ccnc(NCC8CC8)c7)n6)c(C(F)F)n5)cc4)c3C2=O)C(=O)N1 (stereo not shown) , concentration at 4 h read as 3.5

----------
assay: Pharmacokinetics in CD-1 mice (plasma concentrations, PK parameters); assay type: in vivo; conditions: CD-1, mouse, plasma, iv, 2 mg/kg, mouse (CD1) iv 2 mg/kg; Mean IV; read-out: Vdss
endpoint_name: Vd (L/kg)
Hi! Could you send only the number? It should be in L/kg, unit omitted.

// NC(=O)c1nn(-c2ccc(C(=O)NCCOCCOCCNc3cccc4c3C(=O)N(C3CCC(=O)NC3=O)C4=O)cc2)cc1NC(=O)c1coc(-c2ccnc(NCC(F)(F)F)c2)n1 (stereo not shown) : Vd value = 6.25

----------
Experiment: Pharmacokinetics in Sprague Dawley rats (plasma and brain concentrations, PK parameters)
Assay type: in vivo
Settings: Sprague-Dawley, rat, plasma, iv, 3 mg/kg, Sprague Dawley rat, iv 3 mg/kg, plasma, 5 min, Rat 3; read-out: Concentration Rat 3
Description: Pharmacokinetics for I-127, I-172 and I-210 were determined in Sprague Dawley rats or CD-1 mice by dosing intravenous (IV), subcutaneous (SC) or per oral (PO) using facility SOPs and sampling plasma at required time points. […] Compounds were extracted from plasma, injected on reverse phase HPLC, eluted with a gradient from 5% to 95% acetonitrile in water and quantified by mass spectrometry with internal standard. […]
endpoint_name: concentration at 5 min (ng/mL)
Numbers only; they are read as ng/mL.

Record O=C1CCC(N2C(=O)c3cccc(NCCOCCOCCNCc4ccc(-n5cc(NC(=O)c6coc(-c7ccnc(NCC8CC8)c7)n6)c(C(F)F)n5)cc4)c3C2=O)C(=O)N1 (stereo not shown) [I-210] . Reported concentration at 5 min: 700

----------
assay: Pharmacokinetics in CD-1 mice (plasma concentrations, PK parameters); assay type: in vivo; settings: CD-1, mouse, plasma, iv, 2 mg/kg, mouse (CD1) iv 2 mg/kg; 24 h; individual Mouse 1-3; read-out: Concentration
endpoint_name: concentration at 24 h (ng/mL)
Express it in ng/mL; write the number only.

Please fill in: concentration at 24 h reported for NC(=O)c1nn(-c2ccc(C(=O)NCCCCCNCCNc3cccc4c3C(=O)N(C3CCC(=O)NC3=O)C4=O)cc2)cc1NC(=O)c1coc(-c2ccnc(NCC(F)(F)F)c2)n1 (stereo not shown) [I-172] = 2.55

----------
Target: IRAK4 (Homo sapiens, UniProt Q9NWZ3)
Sequence (Q9NWZ3 whole entry): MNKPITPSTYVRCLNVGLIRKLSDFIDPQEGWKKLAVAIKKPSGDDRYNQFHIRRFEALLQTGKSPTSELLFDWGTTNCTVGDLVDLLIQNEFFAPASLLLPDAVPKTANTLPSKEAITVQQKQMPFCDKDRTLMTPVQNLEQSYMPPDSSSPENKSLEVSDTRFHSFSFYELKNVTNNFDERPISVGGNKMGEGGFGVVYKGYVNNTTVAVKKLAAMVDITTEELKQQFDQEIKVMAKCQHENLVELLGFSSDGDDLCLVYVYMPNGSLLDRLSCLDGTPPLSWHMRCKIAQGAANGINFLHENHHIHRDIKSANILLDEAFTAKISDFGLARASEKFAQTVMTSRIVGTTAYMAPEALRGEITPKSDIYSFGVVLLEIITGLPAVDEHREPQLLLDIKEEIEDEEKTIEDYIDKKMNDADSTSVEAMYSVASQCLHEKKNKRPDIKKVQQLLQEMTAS
Assay: OCI-LY-10 degradation assay (western blot, % IRAK4 degraded after 4 hours)
Format: cell-based
Design: endogenous in cells; host or cells: OCI-LY10
Conditions: OCI-LY10 cells, 4 hours, 1 uM compound
Experimental: Compounds were reconstituted in DMSO to make stock solutions at concentration of 60 mM. THP-1 and OCI-LY10 cells were maintained in RPMI-1640 medium containing 10% FBS, 0.5 μM 2-ME or 20% FBS, 55 μM 2-ME, and 1% L-Glutamine respectively. […] The protein concentration of cell lysates was quantified with Pierce™ BCA Protein Assay Kit (Pierce, 23227). […] After incubation at 37° C. for 30 min, the absorbance of samples at 562 nm were measured with EnVision Plate Reader. […]
endpoint_name: OCI-LY10 % IRAK4 Degradation (1 uM)

INSERT INTO results (molecule, obs_value) VALUES
  ('O=C1CCC(N2C(=O)c3ccc(N4CCN(CCOCCOCCNC(=O)c5ccc(-n6cc(NC(=O)c7coc(-c8ccnc(NCC9CC9)c8)n7)c(C(F)F)n6)cc5)CC4)cc3C2=O)C(=O)N1 (centres unmarked)', 'A (>50% degradation)'),
  ('O=C1CCC(N2C(=O)c3ccc(NCCc4cnnn4CCOCCOCCNCc4ccc(-n5cc(NC(=O)c6coc(-c7ccnc(NCC8CC8)c7)n6)c(C(F)F)n5)cc4)cc3C2=O)C(=O)N1 (centres unmarked)', 'A (>50% degradation)'),
  ('O=C1CCC(N2C(=O)c3cccc(NC4CCN(CCOCCOCCOCCNC(=O)c5ccc(-n6cc(NC(=O)c7coc(-c8ccnc(NCC9CC9)c8)n7)c(C(F)F)n6)cc5)CC4)c3C2=O)C(=O)N1 (centres unmarked)', 'A (>50% degradation)'),
  ('O=C1CCC(N2C(=O)c3cccc(OCc4cnnn4CCOCCOCCNCn4cc(NC(=O)c5coc(-c6ccnc(NCC7CC7)c6)n5)c(C(F)F)n4)c3C2=O)C(=O)N1 (centres unmarked)', 'A (>50% degradation)');

FYI, the data here is from patent US10874743B2.
